target: glucose-6-phosphate dehydrogenase-6-phosphogluconolactonase (Plasmodium falciparum 3D7); assay: concentration-dependent PfGluPho enzyme inhibition – biochemical, fluorescence intensity, dose response (AID 504765); settings: Recombinant PfG6PD enzyme, fluorescence intensity (NADPH)
value-type: pIC50
Keep in mind that pIC50 stands for -log10 of concentration in molar terms.

> print(dat)
                                   molecule  value.type  test.result
1                CC1N(C)c2cccc3cccc(c23)N1C       pIC50         4.95
2  O=C(NCCCN1CCOCC1)c1sc2cc([N+](=O)[O-])ccc2c1Cl       pIC50         5.17
3   COc1cccc(/C=N/NC(=O)CSc2cccc3cccnc23)c1       pIC50         5.26
4    Nc1ccc(S(=O)(=O)c2cc(O)c3ccccc3c2O)cc1       pIC50         5.24
5   Cc1ccccc1-n1c(-c2ccc3ccccc3n2)n[nH]c1=S       pIC50         4.84

Enquiry: Would you kindly share the measured pIC50 for OCc1ccccc1SSc1ccccc1CO ?
Return: 4.78

* * *

target: glucose-6-phosphate dehydrogenase-6-phosphogluconolactonase (Plasmodium falciparum 3D7); assay: concentration-dependent PfGluPho enzyme inhibition – biochemical, fluorescence intensity, dose response (AID 504765); settings: Recombinant PfG6PD enzyme, fluorescence intensity (NADPH)
# IC50 values compiled below

Enquiry: Lab note: need IC50 for CCOc1ccc(NC(=O)Cn2sc3nc(C)cc(C)c3c2=O)cc1 on glucose-6-phosphate dehydrogenase-6-phosphogluconolactonase (Plasmodium falciparum 3D7), anyone have it?
Return: 1.85 µM

Enquiry: Please provide the recorded IC50 for CN1CC[C@@]2(C)c3cc(O)ccc3N(C)[C@@H]12 , tested on glucose-6-phosphate dehydrogenase-6-phosphogluconolactonase (Plasmodium falciparum 3D7).
Return: 1.52 µM

Enquiry: Look up IC50 with glucose-6-phosphate dehydrogenase-6-phosphogluconolactonase (Plasmodium falciparum 3D7) for this molecule: O=C(CCSCCC(=O)NN=Cc1ccccc1)NN=Cc1ccccc1
Return: 7.76 µM

Enquiry: IC50 of COc1cccc(-c2c(C(=O)N/N=C/c3ccc(C)s3)nnn2-c2nonc2N)c1 on glucose-6-phosphate dehydrogenase-6-phosphogluconolactonase (Plasmodium falciparum 3D7)?
Return: 6.69 µM

Enquiry: Form entry - test system: glucose-6-phosphate dehydrogenase-6-phosphogluconolactonase (Plasmodium falciparum 3D7); read-out: IC50; molecule: COc1cccc(C(=O)Nc2nnc(C(C)C)s2)c1
Return: 5.83 µM

Enquiry: Report IC50 for O=C(O)c1cccc(N2C(=O)C=CC2=O)c1 tested on glucose-6-phosphate dehydrogenase-6-phosphogluconolactonase (Plasmodium falciparum 3D7).
Return: 15.5 µM

Enquiry: What is its IC50 for glucose-6-phosphate dehydrogenase-6-phosphogluconolactonase (Plasmodium falciparum 3D7)? Entry: O=c1c2ccccc2sn1-c1cc(S(=O)(=O)N2CCOCC2)ccc1N1CCCC1
Return: 1.08 µM

* * *

target: glucose-6-phosphate dehydrogenase-6-phosphogluconolactonase (Plasmodium falciparum 3D7); assay: concentration-dependent PfGluPho enzyme inhibition – biochemical, fluorescence intensity, dose response (AID 504765); conditions: Recombinant PfG6PD enzyme, fluorescence intensity (NADPH)
Active and inactive are the calls of the source. The rule behind the calls is not given here.
Thanks in advance; please answer with one of these: active, inactive

Completed entries (count: 2):
> print(dat)
                                   molecule  category
1  CCOc1ccc(S(=O)(=O)Nc2cc(SCC(=O)O)c(O)c3ccccc23)cc1    active
2  O=[N+]([O-])c1ccc2c(c1)-c1ccccc1C2O (stereo not given)    active

Enquiry: Record lookup: outcome of this test for COc1cc(/C=C2\SC(c3ccc(C)cc3)=NC2=O)cc(OC)c1O ?
Return: active

Enquiry: Recorded test call requested for O=c1c2ccccc2sn1-c1ccc(S(=O)(=O)N2CCCC2)cc1
Return: active

Enquiry: Please indicate how the test categorized Cc1ccsc1/C=N/NC(=O)c1cccc(S(=O)(=O)Nc2ccccc2Cl)c1 .
Return: active

Enquiry: Record request — test call for COc1ccc(NS(=O)(=O)c2ccc(N3CCCC3)c(NC(=S)Nc3cccc(C)c3C)c2)cc1
Return: inactive

Enquiry: Outcome logged for Cc1noc(C(=O)Nc2sc3c(c2C#N)CCC3)c1Cl in this assay:
Return: active

Enquiry: Answer briefly: the call reported for Cc1ccc2nc(SCC(=O)NC3CCCc4ccccc43)[nH]c2c1 (stereo not given) in this assay.
Return: active

Enquiry: What is the recorded call for this molecule in the test? COc1cc(N)c2ncsc2c1
Return: active

Enquiry: So what was the verdict on COc1cc(NCc2ccccc2)c2ncn(Cc3ccccc3)c2c1 in this test?
Return: inactive

Enquiry: Answer briefly: the call reported for CCCN1CCc2cc(O)cc3c2[C@H]1Cc1ccc(O)c(O)c1-3 in this assay.
Return: active

Enquiry: Entry CN(C)Cc1cc(O)c(CN(C)C)cc1O : call = ?
Return: active

Enquiry: Hi team, can someone confirm the assay call for CCN(CC)C(=S)SSC(=S)N(CC)CC ?
Return: active

Enquiry: I'd appreciate the recorded outcome for CN(C)c1nc(=NCc2cccs2)ss1 from this test.
Return: active

Enquiry: I'd appreciate the recorded outcome for CCN1CCN(C(=S)c2ccc(O)cc2)CC1 from this test.
Return: inactive
